assay: Drug concentration in Sprague-Dawley rat plasma at 30 mg/kg, po after 0.5 hrs by LC-MS/MS analysis; assay type: ADME, organism-based
assay.endpoint: concentration at 0.5 h
Record the result as a number with its unit.

molecule	concentration at 0.5 h
Cc1ccc(-n2nccn2)c(C(=O)N2[C@@H]3CC[C@H]2[C@H](COc2ccccn2)C3)n1	118 ng/mL
O=C(c1cccc(F)c1-c1ncccn1)N1[C@@H]2CC[C@H]1[C@H](Nc1cnc(C(F)(F)F)cn1)C2	4960 ng/mL
Cc1ccc(-n2nccn2)c(C(=O)N2[C@@H]3CC[C@H]2[C@H](COc2ccc(F)cn2)C3)n1	930 ng/mL

# lookup: concentration at 0.5 h of Cc1ccc(-n2nccn2)c(C(=O)N2C3CCC2C(COc2ccc(F)cn2)C3)c1 (racemic)
55 ng/mL

Look up concentration at 0.5 h: O=C(c1ccc(F)cc1-c1ncccn1)N1[C@@H]2CC[C@H]1[C@H](Nc1cnc(C(F)(F)F)cn1)C2
257 ng/mL

Reference source: ChEMBL document CHEMBL4725448
